Origin of values: PubChem BioAssay (EPA / NIEHS)

Read-out: Interleukin-1 alpha (IL1a), IL1A (gene 3552)
Test Protocol: BSK_KF3CT_IL1a: BioMAP Diversity Plus: KF3CT Assay for Interleukin-1 alpha (IL1a) Biomarker Activity (AID 2283070)
Recorded Conditions: primary human keratinocytes with fibroblasts; actives raise or lower the signal
Method: BSK_KF3CT is a cell-based, multiplexed-readout assay that uses keratinocytes and foreskin fibroblasts, a human skin primary cell co-culture, with measurements taken at 24 hours after chemical dosing in a 96-well plate.BSK_KF3CT_IL1a is an assay component measured in the BSK_KF3CT assay. It measures IL-1a antibody related to regulation of gene expression using ELISA technology.Data from the assay component BSK_KF3CT_IL1a was analyzed into 1 assay endpoint. […]
Calls of active or inactive are those of the source. Rule for the calls: active = hit-call score of the fitted dose curve at least 0.9, where 1 is the maximum; inactive = score below 0.9.
Outcomes: yes (1) for active, no (0) for inactive

- OCC(F)(F)C(F)(F)C(F)(F)F: no (0)
- FC(F)(F)C(F)(F)C(F)(F)C(F)(F)C(F)(F)C(F)(F)C(F)(F)C(F)(F)CCS: no (0)
- O=C(O)C(F)(F)C(F)(F)C(F)(F)C(F)(F)C(F)(F)C(F)(F)C(F)(F)C(F)(F)C(F)(F)C(F)(F)C(F)(F)C(F)(F)C(F)(F)F: no (0)
- C#C[C@]1(O)CC[C@H]2[C@@H]3CCc4cc(OC)ccc4[C@H]3CC[C@@]21C: yes (1)
- C=C(C)C(=O)OCCC(F)(F)C(F)(F)C(F)(F)C(F)(F)C(F)(C(F)(F)F)C(F)(F)F: no (0)
- O=S(=O)(OCCOC(F)(F)F)C(F)(F)F: no (0)
- FC(F)(F)C(F)(F)C(F)(F)N(C(F)(F)C(F)(F)C(F)(F)F)C(F)(F)C(F)(F)C(F)(F)F: no (0)
- CC(=O)Nc1ccc(N=Nc2cc(C)ccc2O)cc1: yes (1)
- C=CC(F)(F)C(F)(F)C(F)(F)C(F)(F)C(F)(F)C(F)(F)C(F)(F)C(F)(F)F: no (0)
- OCC(F)(F)C(F)(F)C(F)(F)C(F)(F)C(F)(F)C(F)(F)F: no (0)
- FC(F)(F)C(F)(F)C(F)(F)C(F)(F)C(F)(F)C(F)(F)CCS: no (0)
- O=C(CC(=O)C(F)(F)C(F)(F)F)C(F)(F)F: no (0)
- O=C(O)C(F)(F)C(F)(F)F: no (0)
- CCc1c(Br)c(Br)c(Br)c(Br)c1Br: no (0)
- FC(F)(F)C(F)(F)C(F)(F)CI: no (0)
- CCCCNc1ccccc1: no (0)
- FC(F)(F)C(F)(F)C(F)(F)C(F)(F)C(F)(F)C(F)(F)C(F)(F)I: no (0)
- O=C(O)C(F)(F)C(F)(F)OC(F)(F)F: no (0)
- NC(=O)C(F)(F)C(F)(F)C(F)(F)C(F)(F)F: no (0)
- C=C(C)C(=O)OCC(F)(F)C(F)(F)C(F)(F)C(F)(F)C(F)(F)C(F)(F)C(F)(F)F: no (0)
- CCCCCCC(C)OC(=O)CCCCC(=O)OC(C)CCCCCC (configuration not stated): no (0)
- OCC(F)(F)C(F)(F)C(F)(F)C(F)(F)C(F)(F)C(F)F: no (0)

----------
Test Protocol: CCTE_Shafer_MEA_dev_network_spike_number: CCTE's Neural Network Formation Assay for Number of Network Spikes, Shafer Lab (AID 2284048);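 note: synchronized bursts across electrodes counted on days 5 7 9 12 and integrated as AUC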
Calls of active or inactive are those of the source. How the source made its calls: active means hit-call score of the fitted dose curve at least 0.9, where 1 is the maximum; inactive means score below 0.9.
Value Type: outcome

- FC(F)(F)C(F)(F)C(F)(F)C(F)(F)C(F)(F)C(F)(F)CC1CO1 (stereo not drawn): inactive
- O=C(O)C(F)(F)C(F)(F)C(F)(F)F: inactive
- CC(CCl)OP(=O)(OC(C)CCl)OC(C)CCl (stereo not drawn): inactive

----------
Test Protocol: BSK_3C_SRB: Viability Assessment in the BioMAP Diversity Plus: 3C Assay (AID 2283023);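 note: fitted both ways against DMSO so a hit may be signal rise or drop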
Recorded Conditions: primary human endothelial cells (HUVEC)
The source made the active and inactive calls. How the source made its calls: active means hit-call score of the fitted dose curve at least 0.9, where 1 is the maximum; inactive means score below 0.9.
Outcomes: 1.0 for active, 0.0 for inactive

* O=C(O)C(F)(F)C(F)(F)C(F)(F)C(F)(F)C(F)(F)C(F)(F)C(F)(F)C(F)(F)C(F)(F)C(F)(F)C(F)(F)C(F)(F)C(F)(F)F | 0.0
* O=S(=O)(OCCOC(F)(F)F)C(F)(F)F | 0.0
* CCCCCCC(C)OC(=O)CCCCC(=O)OC(C)CCCCCC (stereo unspecified) | 0.0
* O=C(O)C(F)(F)C(F)(F)F | 0.0
* O=C(O)C(F)(F)C(F)(F)C(F)(F)C(F)(F)C(F)(F)C(F)(F)C(F)(F)C(F)(F)C(F)(F)C(F)(F)C(F)(F)C(F)(F)F | 0.0
* O=C(O)C(F)(OC(F)(F)C(F)(OC(F)(F)C(F)(OC(F)(F)C(F)(F)C(F)(F)F)C(F)(F)F)C(F)(F)F)C(F)(F)F (stereo unspecified) | 0.0
* CS(C)(=O)=O | 0.0
* O=C(CC(=O)C(F)(F)C(F)(F)F)C(F)(F)F | 0.0
* CCCCOCCOCCOC(=O)CCCCC(=O)OCCOCCOCCCC | 0.0
* CC(=O)Nc1ccc(N=Nc2cc(C)ccc2O)cc1 | 0.0
* O=C(O)C=C(C(F)(F)F)C(F)(F)F | 0.0
* CO[Si](OC)(c1ccccc1)c1ccccc1 | 1.0
* OCC(F)(F)C(F)(F)C(F)(F)C(F)(F)C(F)(F)C(F)F | 0.0
* FC(F)(F)C(F)(F)C(F)(F)C(F)(F)CCI | 0.0
* O[Si](c1ccccc1)(c1ccccc1)c1ccccc1 | 1.0
* C=C(C)C(=O)OCCC(F)(F)C(F)(F)C(F)(F)C(F)(F)C(F)(C(F)(F)F)C(F)(F)F | 0.0
* NC(=O)C(F)(F)C(F)(F)C(F)(F)C(F)(F)F | 0.0
* FC(F)(F)C(F)(F)C(F)(F)C(F)(F)C(F)(F)C(F)(F)C(F)(F)C(F)(F)F | 0.0
* C=CC/C=C/C/C=C/C/C=C/C | 0.0
* C=C(C)C(=O)OCC(F)(F)C(F)(F)C(F)(F)F | 0.0
* C=CC(F)(F)C(F)(F)C(F)(F)C(F)(F)C(F)(F)C(F)(F)C(F)(F)C(F)(F)F | 0.0

----------
Test Protocol: BSK_BT_Bcell_Proliferation: Viability Assessment in the BioMAP Diversity Plus: BT Assay for B cell Proliferation (AID 2284227)
Recorded Conditions: primary human B cells with PBMC
Experimental: BSK_BT is a cell-based, multiplexed-readout assay that uses B cell and peripheral blood mononuclear cells, a human vascular primary cell co-culture, with measurements taken at 24 hours after chemical dosing in a microplate: 96-well plate.BSK_BT_Bcell_Proliferation is an assay component measured in the BSK_BT assay. […] The levels of cell surface (or secreted, indicated by the prefix "s") biomarker endpoints were measured by ELISA. […] Plates were read after 6 h.
Calls of active or inactive are those of the source. How the source made its calls: active means hit-call score of the fitted dose curve at least 0.9, where 1 is the maximum; inactive means score below 0.9.
Outcomes: 1 (active), -1 (inactive)

- O=C(O)C=C(C(F)(F)F)C(F)(F)F: 1
- C=CC/C=C/C/C=C/C/C=C/C: -1
- NC(=O)C(F)(F)C(F)(F)C(F)(F)C(F)(F)F: -1
- O=P(O)(O)OCCC(F)(F)C(F)(F)C(F)(F)C(F)(F)C(F)(F)C(F)(F)F: -1
- FC(F)(F)C(F)(F)C(F)(F)C(F)(F)C(F)(F)CCI: -1
- O=C(Cl)C(F)(F)C(F)(F)C(F)(F)C(F)(F)C(F)(F)C(F)(F)C(F)(F)C(F)(F)F: -1

----------
Test Protocol: ATG_TCF_b_cat_CIS: Attagene CIS-FACTORIAL HepG2 Assay for human T-Cell-Factor with beta-catenin (TCF/b-cat) (AID 2282965)
Recorded Conditions: HepG2 TCF/beta-catenin cis-reporter transcription, actives raise or lower the signal
Calls of active or inactive are those of the source. How the source made its calls: active means hit-call score of the fitted dose curve at least 0.9, where 1 is the maximum; inactive means score below 0.9.
Outcomes: active, inactive

- OCC(F)(F)C(F)(F)C(F)(F)C(F)F: inactive
- O=C(O)C(F)(F)C(F)(F)C(F)(F)F: inactive
- Nc1ccc(Oc2cccc(Oc3ccc(N)cc3)c2)cc1: active
- O=C(O)C(F)(OC(F)(F)C(F)(OC(F)(F)C(F)(OC(F)(F)C(F)(F)C(F)(F)F)C(F)(F)F)C(F)(F)F)C(F)(F)F (stereo unspecified): inactive
- C=C(C)C(=O)OCCC(F)(F)C(F)(F)C(F)(F)C(F)(F)C(F)(C(F)(F)F)C(F)(F)F: inactive
- CC(C)=CCCC(C)CCOC(=O)C(C)C (stereo unspecified): inactive
- CO[Si](OC)(c1ccccc1)c1ccccc1: inactive
- C#C[C@]1(O)CC[C@H]2[C@@H]3CCc4cc(OC)ccc4[C@H]3CC[C@@]21C: inactive
- Nc1ccc([N+](=O)[O-])cc1O: inactive
- FC(F)(F)C(F)(F)C(F)(F)N(C(F)(F)C(F)(F)C(F)(F)F)C(F)(F)C(F)(F)C(F)(F)F: inactive
- CCCCOc1ccc(N)cc1: inactive
- Oc1ccc(Nc2ccccc2)cc1: inactive
- FC(F)(F)C(F)(F)C(F)(F)CI: inactive
- FC1CC(F)(F)C(F)(F)C1(F)F (stereo unspecified): inactive
- O=S(=O)(OCC(F)F)C(F)(F)F: inactive
- CC(=O)Nc1ccc(N=Nc2cc(C)ccc2O)cc1: inactive
- Cc1ccc(S(=O)(=O)NCl)cc1: inactive
- CCCCCCOC(=O)c1ccccc1: inactive
- CN(C)Cc1ccccc1O: inactive
- CCc1c(Br)c(Br)c(Br)c(Br)c1Br: inactive
- O=C(O)C(F)(F)C(F)(F)C(F)(F)C(F)(F)F: inactive
- C=CC(F)(F)C(F)(F)C(F)(F)C(F)(F)C(F)(F)C(F)(F)C(F)(F)C(F)(F)C=C: inactive
- CCC(=O)OCCc1ccccc1: inactive
- CCCCCCOC(=O)c1ccccc1O: inactive
- CC(Cc1ccc(O)c(O)c1)C(C)Cc1ccc(O)c(O)c1 (stereo unspecified): active
- CCCCOCCOCCOC(=O)CCCCC(=O)OCCOCCOCCCC: inactive
